- TEST_SYSTEM: Phospholipase D1 (Homo sapiens)
- TEST_NAME: PLD1 inhibitor potency in cells, dose response (AID 602151)
- MEASUREMENT_PARAMETERS: cellular PLD1 activity assay
PROPERTY: IC50

Report IC50, nothing else, for this compound: O=C(NCCN1CCC2(CC1)C(=O)NCN2c1ccc(Br)cc1)c1cc2cc(F)ccc2[nH]1
2660 nM

Return value of IC50 for input O=C(NCCN1CCC2(CC1)C(=O)NCN2c1ccc(Cl)cc1)c1cnc2ccccc2c1 , no commentary.
3500 nM

Please indicate IC50 recorded for O=C(NCCN1CCC2(CC1)C(=O)NCN2c1cccc(Cl)c1)c1ccc(F)cc1
3470 nM

Fill in reported IC50 for this entry: O=C(NCCN1CCC2(CC1)C(=O)NCN2c1cccc(F)c1)c1cc2cc(F)ccc2[nH]1
210 nM

Supply measured IC50 of O=C(NCCN1CCC2(CC1)C(=O)NCN2c1ccc(F)c(F)c1)c1cnc2ccccc2c1 in your reply.
2060 nM

Provide only the value of recorded IC50 for O=C(NCCN1CCC2(CC1)C(=O)NCN2c1cccc(F)c1)c1cnc2ccccc2c1
2500 nM

Quick one: give measured IC50 for O=C(NCCN1CCC2(CC1)C(=O)NCN2c1cccc(Cl)c1)c1ccc2ccccc2c1
1200 nM

Could you please provide reported IC50 for O=C(NCCN1CCC2(CC1)C(=O)NCN2c1cccc(Cl)c1)c1cnc2ccccc2c1 ? Thanks!
870 nM

State its IC50 for this compound: C[C@@H](CN1CCC2(CC1)C(=O)NCN2c1cccc(F)c1)NC(=O)c1ccc2ccccc2c1
10 nM
